Sourced from patent US9809574B2

subject.of.test: Bcl-2 protein (histag-Bcl-2, UniProtKB P10415) (Homo sapiens (Human), UniProt P10415)
Sequence (P10415 whole entry): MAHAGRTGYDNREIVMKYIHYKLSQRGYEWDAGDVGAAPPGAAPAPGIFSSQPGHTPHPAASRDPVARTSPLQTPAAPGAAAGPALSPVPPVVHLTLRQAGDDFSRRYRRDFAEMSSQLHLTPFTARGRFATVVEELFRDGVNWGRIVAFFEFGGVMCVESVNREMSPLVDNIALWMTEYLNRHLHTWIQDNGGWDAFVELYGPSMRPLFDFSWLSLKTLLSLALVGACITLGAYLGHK
experiment: Inhibition of Bcl-2 by the fluorescence polarisation technique
Assay type: binding
particulars: fluorescence polarisation test; incubation for 2 hours; read-out: IC50 (nM) Bcl-2 FP
Threshold-based label: IC50 under 6 nM gives Criterion met, IC50 not under 6 nM gives Criterion not met.

Prompt line: Hello, is IC50 of the following molecule strictly smaller than 6 nM? C[C@@H]1Cc2ccccc2CN1C(=O)c1cc2c(cc1-c1cc(C(=O)N(C)c3ccc(O)cc3)c3n1CCCC3)CCN(C(=O)N1CC(c3ccccc3)C1)C2
Response line: Criterion met

Prompt line: Hello, is IC50 of the following molecule strictly smaller than 6 nM? Cc1c(C(=O)N(C)c2ccc(O)cc2)cc(-c2cc3c(cc2C(=O)N2Cc4ccccc4C[C@H]2C)CN(C(=O)C(C)Oc2ccccc2)C3)n1C (stereo partly drawn)
Response line: Criterion not met

Prompt line: Hello, is IC50 of the following molecule strictly smaller than 6 nM? CN(C(=O)c1cc(-c2cc3c(cc2C(=O)N2Cc4ccccc4C[C@H]2CN2CCOCC2)CN(C(=O)OCc2ccccc2)CC3)n2c1CCCC2)c1ccc(O)cc1
Response line: Criterion met

Prompt line: Hello, is IC50 of the following molecule strictly smaller than 6 nM? Cc1c(C(=O)N(C)c2ccccc2)cc(-c2cc3c(cc2C(=O)N2Cc4ccccc4C[C@H]2C)CN(C(=O)Oc2ccc(N(C)CCN(C)C)cc2)CC3)n1C
Response line: Criterion met

Prompt line: Hello, is IC50 of the following molecule strictly smaller than 6 nM? CCCCN(CCCC)C(=O)c1cc(-c2cc3c(cc2C(=O)N2CCc4ccccc4C2)CN(C(=O)Cc2ccccc2)CC3)n(C)c1C
Response line: Criterion not met

Prompt line: Hello, is IC50 of the following molecule strictly smaller than 6 nM? Cc1c(C(=O)N(C)c2ccccc2)cc(-c2cc3c(cc2C(=O)N2Cc4ccccc4C[C@H]2CN2CCOCC2)CN(C(=O)Cc2ccc(C#N)cc2)CC3)n1C
Response line: Criterion met

* * *

System: RS4; 11 leukaemia cell line
experiment: In vitro cytotoxicity, Microculture Tetrazolium Assay (MTT)
Type: cell-based
particulars: Homo sapiens, 11 cells exposed for 48 hours
Structures can show the parent of a compound that is named as a salt.
Class key for IC50 values: low-valued (below 6 nM), mid-valued (6 nM to below 30 nM), high-valued (30 nM or more)

The following compounds have reported results that may help.
INSERT INTO measurements (compound, class_assignment) VALUES
  ('CN(C(=O)c1cc(-c2cc3c(cc2C(=O)N2Cc4ccccc4C[C@H]2CN2CCOCC2)CN(S(=O)(=O)c2ccccc2)C3)n2c1CCCC2)c1ccc(O)cc1 [Example 19, hydrochloride]', 'high-valued'),
  ('CN(C(=O)c1cc(-c2cc3c(cc2C(=O)N2Cc4ccccc4C[C@H]2CN2CCOCC2)CN(C(=O)Oc2ccc(C#N)cc2)CC3)n2c1CCCC2)c1ccc(O)cc1', 'mid-valued'),
  ('Cc1c(C(=O)N(C)c2ccc(O)cc2)cc(-c2cc3c(cc2C(=O)N2Cc4ccccc4C[C@H]2C)CN(C(=O)Cc2ccc4c(c2)OCO4)C3)n1C', 'mid-valued'),
  ('C[C@@H]1Cc2ccccc2CN1C(=O)c1cc2c(cc1-c1cc(C(=O)N(C)c3ccc(O)cc3)c3n1CCCC3)CN(C(=O)N1CC(c3ccccc3)C1)C2', 'high-valued'),
  ('Cc1c(C(=O)N(C)c2ccc(O)cc2)cc(-c2cc3c(cc2C(=O)N2Cc4ccccc4C[C@H]2C)CN(C(=O)Oc2cccc(CCC(=O)N(C)C)c2)CC3)n1C', 'low-valued');

Prompt line: Using the reported IC50, which band applies to Cc1c(C(=O)N(C)c2ccc(O)cc2)cc(-c2cc3c(cc2C(=O)N2Cc4ccccc4C[C@H]2C)CN(C(=O)Oc2ccc(CCC(=O)N(C)C)cc2)CC3)n1C ?
Response line: low-valued

Prompt line: Using the reported IC50, which band applies to Cc1c(C(=O)N(C)c2ccc(O)cc2)cc(-c2cc3c(cc2C(=O)N2Cc4ccccc4C[C@H]2C)CN(C(=O)Oc2ccccc2OCCN(C)C)CC3)n1C ?
Response line: mid-valued

Prompt line: Using the reported IC50, which band applies to C[C@@H]1Cc2ccccc2CN1C(=O)c1cc2c(cc1-c1cc(C(=O)N(C)c3ccc(O)cc3)c3n1CCCC3)CN(Cc1ccccn1)C2 ?
Response line: high-valued

Prompt line: Using the reported IC50, which band applies to CN(C(=O)c1cc(-c2cc3c(cc2C(=O)N2Cc4ccccc4C[C@H]2CN2CCOCC2)CN(C(=O)Oc2ccccc2)CC3)n2c1CCCC2)c1ccc(O)cc1 [Example 69, hydrochloride] ?
Response line: low-valued

Prompt line: Using the reported IC50, which band applies to CCN1CCc2cc(-c3cc(C(=O)N(C)c4ccc(O)cc4)c4n3CCCC4)c(C(=O)N3Cc4ccccc4C[C@H]3C)cc2C1 ?
Response line: high-valued
